- Tested on: A. tumefaciens ATCC 55632 hydantoinase
- PROCEDURE_TEXT: Substrate specificity
- Assay type: biochemical
- CONDITION_LABEL: Table 6 values rescaled to 5,6-Dihydrouracil = 100
# cutoff 70% applies to % Relative Activity with: ATCC 55632; >= gives Condition met, < gives Condition not met

QUERY: Item O=C1CCNC(=O)N1 [5,6-Dihydrouracil] with % Relative Activity with: ATCC 55632 of 70% or above?
RESULT: Condition met

QUERY: Item O=C1NC(=O)C(Cc2ccccc2)N1 (racemic) with % Relative Activity with: ATCC 55632 of 70% or above?
RESULT: Condition not met

QUERY: Item CSCCC1NC(=O)NC1=O (centres unmarked) with % Relative Activity with: ATCC 55632 of 70% or above?
RESULT: Condition not met

QUERY: Item CC1NC(=O)NC1=O (racemic) with % Relative Activity with: ATCC 55632 of 70% or above?
RESULT: Condition met

---

- Test system: A. tumefaciens ATCC 55632
- PROCEDURE_TEXT: Induction of hydantoinase activity, basal salts medium with yeast extract and glucose
- Type: cell-based
- CONDITION_LABEL: addition 2 mg/ml, cells harvested after 8 hours; no addition 0.06
MEASUREMENT_TYPE: Specific Activity (U/mg)
Remember to put the unit after the number in your answer.

COMPOUND	EXPERIMENTAL_SYSTEM	Specific Activity (U/mg)
O=C1CNC(=O)N1	A. tumefaciens ATCC 55632	1.44 U/mg

Return reported Specific Activity (U/mg) values for all items listed beneath this line.
1. CC1NC(=O)NC1=O (racemic)
2. O=C1CCNC(=O)N1 [5,6-Dihydrouracil]
3. NC(=O)NCC(=O)O
4. C[C@H](NC(N)=O)C(=O)O
5. NC(=O)N[C@@H](Cc1ccccc1)C(=O)O

RESULT:
1: 1.65 U/mg; 2: 0.22 U/mg; 3: 1.34 U/mg; 4: 0.44 U/mg; 5: 0.13 U/mg

QUERY: Using the record for CN1CC(=O)NC1=O , report its Specific Activity (U/mg).
RESULT: 0.09 U/mg

---

- Tested on: A. tumefaciens ATCC 55632 hydantoinase
- PROCEDURE_TEXT: Substrate specificity
- Format: biochemical
- CONDITION_LABEL: substrate 5 mg/ml in 50 mM Tris-HCl pH 9.0, 40°C, 10 minutes; DL-5-Methylhydantoin = 100
MEASUREMENT_TYPE: Relative Activity (%)

MOLECULE	Relative Activity (%)
CSCCC1NC(=O)NC1=O (stereo not drawn) [5(2-methylthioethyl) hydantoin]	81%
CCC(C)C1NC(=O)NC1=O (racemic) [DL-5-(sec)-Butylhydantoin]	76%
CC1NC(=O)NC1=O (racemic) [DL-5-Methylhydantoin]	100%

Return reported Relative Activity (%) values for all items listed beneath this line.
1. O=C1CCNC(=O)N1 [5,6-Dihydrouracil]
2. CC(C)C1NC(=O)NC1=O (racemic) [DL-5-Isopropylhydantoin]
3. O=C1NC(=O)C(c2ccccc2)N1 (racemic) [DL-5-Phenylhydantoin]
4. O=C1NC(=O)C(CO)N1 (racemic) [DL-5-Hydroxymethylhydantoin]
5. CC(C)CC1NC(=O)NC1=O (racemic) [DL-5-Isobutylhydantoin]
6. O=C1NC(=O)C(Cc2ccccc2)N1 (racemic) [DL-5-Benzylhydantoin]

RESULT:
1: 125%; 2: 73%; 3: 85%; 4: 22%; 5: 77%; 6: 19%
